B1: CPEB3 Ribozyme (parent)
chain: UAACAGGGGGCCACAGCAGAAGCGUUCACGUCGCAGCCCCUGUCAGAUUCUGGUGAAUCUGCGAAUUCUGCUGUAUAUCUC

- Variants of: B1
- run-description: self-cleavage, relative activity (ratio to wild type); higher = more cleavage; in vitro, sequencing

var	self-cleavage
A15G G46A	0.38
C4A A18G	1.04
G24C U72C	0.15
A20C A35U	0.17
C38G U43C	0.34
A13U A21C	0.37
A28C U54C	0.53
G6U C12U	0.19
A13U A18G	0.87
A20C A77G	0.11
U51A G52C	1.09
A28U G70A	0.27
U25C U66C	0.27
A35G U80C	1.3
G22U U31A	0.32
C27U U76C	0.19
C14G A20U	0.26
C29U A64G	0.23
G19A C39A	0.11
U41C U60G	0.42
U25G U41C	0.4
U51A U58A	0.3
G8C A18G	0.27
C12A A65C	0.32
C11U A20G	0.43
A64G C81U	0.91
